# TARGET OR TEST SYSTEM: T1, human serum albumin (human, UniProt P02768 25-609)
# T1 construct: Immobilised on SPR chips; also added in solution in the FcRn occupancy assays; also called HSA; humanSA
# TEST: SPR Biacore 8K+ SCK, albumin on chip, pH 7.4
Would you kindly list kon for each of these binders?
# number only, unit M⁻¹ s⁻¹ dropped from output

query: Write down kon measured for item Alb23 G99A (VHH, VHH alone) VHH: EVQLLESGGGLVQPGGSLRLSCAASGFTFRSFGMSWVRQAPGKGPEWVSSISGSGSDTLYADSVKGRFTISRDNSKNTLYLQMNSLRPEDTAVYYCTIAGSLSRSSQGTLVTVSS
result: 955000

query: Write down kon measured for item Alb23 L59A (VHH, VHH alone) VHH: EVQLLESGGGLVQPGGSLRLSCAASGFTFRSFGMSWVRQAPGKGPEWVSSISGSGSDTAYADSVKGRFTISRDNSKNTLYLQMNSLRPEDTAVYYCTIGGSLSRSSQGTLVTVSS
result: 885000
